All figures here come from PubChem BioAssay.

Test system: Fibrinogen (Alexa647-labelled)
Experiment: Alexa647-fibrinogen binding to printed small molecules – biochemical, small-molecule microarray, 635/667 nm fluorescence, artefact control for SMM control-protein annotation, profiling panel (AID 1131);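 further: z-score merges 667 nm fluorescence with per-spot signal-to-noise over triplicate slides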
Conditions: fibrinogen-A647 binding fluorescence, higher = more signal
metric: composite z-score
// no unit, no text: just the number

compound	system.name	composite z-score
CC1CC/C=C\[C@H]2OC34C=CCN(Cn5nnc6ccccc65)C(=O)[C@H]3N(CCCCCCO)C(=O)[C@@H]4C2C(=O)O1 (some centres undefined)	Fibrinogen (Alexa647-labelled)	-0.627
C=CC[C@]1(C(=O)NCC(O)CO)COC(c2ccc(OCCCO)cc2)=N1 (some centres undefined)	Fibrinogen (Alexa647-labelled)	-1.36
CC(=O)OCC1C2CC[C@H]3C(OCc4ccc(F)cc4C(F)(F)F)OC[C@]4(C)[C@H]3C2=C(CN4C(=O)OC(C)(C)C)[C@H](C)C1COC(C)=O (some centres undefined)	Fibrinogen (Alexa647-labelled)	0.783

Please find the next compound below.
query: State the recorded composite z-score for this entry: NC(=O)N1C(=O)C2C(C1=O)C1C=C(CCCO)C2C(C2CC2)N1Cc1sc2ccccc2c1Cl (centres undefined)
result: 0.795

----------
Experiment: compounds binding Alexa647 anti-His antibody – biochemical, small-molecule microarray, 635 nm fluorescence, artefact control for SMM control protein annotation, primary screen (AID 1128);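 further: score merges feature fluorescence with signal-to-noise for each printed compound spot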
Conditions: higher = more signal
Let's look at some compounds and their measured composite z-score.
// no unit, no text: just the number

Example entries and their recorded answers appear below.
compound	metric	val
NC(=O)N1C(=O)C2C(C1=O)C1C=C(CCCO)C2C(C2CC2)N1Cc1sc2ccccc2c1Cl (stereo unspecified)	composite z-score	2.4
C=C(CCCC)C(=O)CC[C@@H](OC(=O)c1ccccc1-c1ccccc1C(=O)O)c1ccccc1OCCO	composite z-score	0.397
O=C1C[C@@](C(=O)NC2CC2)(c2ccc([N+](=O)[O-])cc2)[C@@H](c2ccc(CO)cc2)N1C1CCCCC1	composite z-score	2.79
C[N+](C)(C)CCCC[C@@H]1NC(=O)[C@H]2C[C@@H](C(=O)NCCCCCNC(=O)CS)[C@@H](c3cccc(OCCO)c3)N2C1=O	composite z-score	1.38

query: State the recorded composite z-score for this entry: C=CCNC(=O)[C@H]1[C@@H]2C(=O)O[C@@H](c3ccccc3)[C@@H](c3ccccc3)N2[C@@H](c2ccc(OCCO)cc2)[C@]12C(=O)Nc1ccccc12
result: 2.03

query: State the recorded composite z-score for this entry: CC1=C([C@H](O)CCc2ccccc2)[C@H](CO)n2c(=O)n(-c3ccccc3)c(=O)n2C1
result: -0.56

----------
Let's look at some compounds and their measured z-score.
Experiment: growth of efflux-deficient E. coli DRC39 – strain DRC39, OD650, 48 h, E. coli filamentation inducers, primary screen (AID 1179);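 further: screen aims at cell division blockers that make cells filament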
Details: E. coli DRC39 delta-acrAB growth, higher = more signal, called active from +8 up or from −8 down
// no unit, no text: just the number

compound	metric	val
NC(=O)N1C(=O)C2C(C1=O)C1C=C(CCCO)C2C(C2CC2)N1Cc1sc2ccccc2c1Cl (stereo not drawn)	z-score	0.152
COCCOC(=O)N1C(=O)[C@@]2(c3cc(C#CCCO)ccc31)[C@H](c1ccccc1OCCO)N1[C@H](c3ccccc3)[C@H](c3ccccc3)OC(=O)[C@H]1[C@@H]2C(N)=O	z-score	-0.605
CN1C(=O)C2C=CC(C(O)c3ccc(-c4ccccc4)s3)N(NC(=O)OC(C)(C)C)C2C1=O (stereo not drawn)	z-score	-0.0168
COCCOC(=O)N1C(=O)[C@@]2(c3cc(C#Cc4ccc(OC)cc4)ccc31)[C@H](c1ccc(OCCO)cc1)N1[C@H](c3ccccc3)[C@H](c3ccccc3)OC(=O)[C@H]1[C@@H]2C(=O)NC[C@H](O)c1ccccc1	z-score	-0.189

query: State the recorded z-score for this entry: C[C@]1(C(=O)O)c2ccccc2C(=O)N(Cc2cc(F)cc(C(F)(F)F)c2)[C@H]1c1ccc(CO)cc1
result: -0.808

query: State the recorded z-score for this entry: O=C1C[C@@](C(=O)O)(c2ccc([N+](=O)[O-])cc2)[C@@H](c2ccc(CO)cc2)N1C1CCCCC1
result: -0.199

query: State the recorded z-score for this entry: CC(C)[Si](C#CCCc1ccccc1)(O[C@H](c1ccccc1)c1cn(Cc2ccccc2)nn1)C(C)C
result: 0.451

query: State the recorded z-score for this entry: C=CCC(OC(C)=O)[C@@H]1[C@@H](N(Cc2ccc(-c3cccc(C(F)(F)F)c3)o2)C(=O)c2ccc(-c3ccccc3)cc2)c2cc(OCCCO)ccc2N1C(=O)c1ccc2ccccc2c1 (stereo partly drawn)
result: 0.412
